These measurements were taken from patent US20200270309A1.

Method Notes: Half-lives and pharmacokinetic parameters of polypeptides vs HM-1
Condition Parameters: in vivo; read-out: T1/2β (half-life) (converted)
Ends that are not written are not given here.
Property Measured: half-life (min)
Record the value in min, omitting the unit from your answer.

Answer with the recorded half-life of H-RGADRAGGGGRGD [HM-1] only.
21

* * *

Method Notes: Half-lives and pharmacokinetic parameters of polypeptides vs HM-1
Condition Parameters: in vivo
Peptide text beside a SMILES is read from it. * marks the point of attachment. Hexanoyl(6-maleimido) = O=C1C=CC(=O)N1CCCCCC(=O)*; X36 = O=C1C=CC(=O)N1c1ccc(CCCCCCCCCCCC(=O)*)cc1; X26 = O=C1C=CC(=O)N1CCOCCOCCOCCOCCOCCCCC(=O)*; X5 = O=C1C=CC(=O)N1CCOCCOCCOCCOCCOCCOCC(=O)*
Could you please report measured MRT inf for the items listed next?
A complete answer gives the number and then names the unit.

Output MRT inf of C[C@H](NC(=O)[C@H](CCCNC(=N)N)NC(=O)[C@H](CC(=O)O)NC(=O)[C@H](CCC(=O)O)NC(=O)CNC(=O)[C@H](CCCNC(=N)N)NC(=O)CCCCCN1C(=O)C=CC1=O)C(=O)NCC(=O)NCC(=O)NCC(=O)NCC(=O)N[C@@H](CCCNC(=N)N)C(=O)NCC(=O)N[C@@H](CC(=O)O)C(=O)O [P6] ({Hexanoyl(6-maleimido)}-RGEDRAGGGGRGD-OH; C-terminus assumed)
49.6 h

Tell me MRT inf reported for C[C@H](NC(=O)CNC(=O)[C@H](CCCNC(=N)N)NC(=O)CCCCOCCOCCOCCOCCOCCN1C(=O)C=CC1=O)C(=O)N[C@@H](CC(=O)O)C(=O)N[C@@H](CCCNC(=N)N)C(=O)N[C@@H](C)C(=O)NCC(=O)NCC(=O)NCC(=O)NCC(=O)N[C@@H](CCCNC(=N)N)C(=O)NCC(=O)N[C@@H](CC(=O)O)C(=O)O [X80] (X26-RGADRAGGGGRGD-OH)
61.6 h

Dear colleague, please send me the reported MRT inf for C[C@H](NC(=O)CNC(=O)[C@H](CCCNC(=N)N)NC(=O)CCCCCCCCCCCc1ccc(N2C(=O)C=CC2=O)cc1)C(=O)N[C@@H](CC(=O)O)C(=O)N[C@@H](CCCNC(=N)N)C(=O)N[C@@H](C)C(=O)NCC(=O)NCC(=O)NCC(=O)NCC(=O)N[C@@H](CCCNC(=N)N)C(=O)NCC(=O)N[C@@H](CC(=O)O)C(=O)O [X47] (X36-RGADRAGGGGRGD-OH) when you can.
59.4 h

Look up and report measured MRT inf for this entry: C[C@H](NC(=O)CNC(=O)[C@H](CCCNC(=N)N)NC(=O)COCCOCCOCCOCCOCCOCCN1C(=O)C=CC1=O)C(=O)N[C@@H](CC(=O)O)C(=O)N[C@@H](CCCNC(=N)N)C(=O)N[C@@H](C)C(=O)NCC(=O)NCC(=O)NCC(=O)NCC(=O)N[C@@H](CCCNC(=N)N)C(=O)NCC(=O)N[C@@H](CC(=O)O)C(=O)O [X84] (X5-RGADRAGGGGRGD-OH)
52.1 h

* * *

Give measured CNV Incidence (%) for each item. Keep answers brief.
Test system: choroidal neovascularization
Method Notes: Choroidal neovascularization in rats (laser photocoagulation, FFA)
Assay type: in vivo
Condition Parameters: day 7 after administration, total light spot number was 186, 0.05 μM in the vitreous chamber once a day for 1 week, BN rats
Peptide text beside a SMILES is read from it. * marks the point of attachment. X65 = O=C1C=CC(=O)N1c1cccc(CCCCCCCCCCCCC(=O)*)c1; X64 = O=C1C=CC(=O)N1c1cccc(CCCCCCCCCC(=O)*)c1; X72 = O=C1C=CC(=O)N1c1ccccc1CCCCCCCCCCC(=O)*; X60 = O=C1C=CC(=O)N1c1ccccc1CCCCCCCCCC(=O)*; X46 = O=C1C=CC(=O)N1c1cccc(CCCCC(=O)*)c1; X61 = O=C1C=CC(=O)N1c1cccc(CCCC(=O)*)c1
Numbers only here, please. The scale is %.

Fetch value of CNV Incidence (%) on choroidal neovascularization for C[C@H](NC(=O)CNC(=O)[C@H](CCCNC(=N)N)NC(=O)CCCCCCCCCc1cccc(N2C(=O)C=CC2=O)c1)C(=O)N[C@@H](CC(=O)O)C(=O)N[C@@H](CCCNC(=N)N)C(=O)N[C@@H](C)C(=O)NCC(=O)NCC(=O)NCC(=O)NCC(=O)N[C@@H](CCCNC(=N)N)C(=O)NCC(=O)N[C@@H](CC(=O)O)C(=O)O [X33] (X64-RGADRAGGGGRGD-OH) .
46.24

Fill: CNV Incidence (%) (choroidal neovascularization) for this compound C[C@H](NC(=O)CNC(=O)[C@H](CCCNC(=N)N)NC(=O)CCCCCCCCCc1ccccc1N1C(=O)C=CC1=O)C(=O)N[C@@H](CC(=O)O)C(=O)N[C@@H](CCCNC(=N)N)C(=O)N[C@@H](C)C(=O)NCC(=O)NCC(=O)NCC(=O)NCC(=O)N[C@@H](CCCNC(=N)N)C(=O)NCC(=O)N[C@@H](CC(=O)O)C(=O)O [X21] (X60-RGADRAGGGGRGD-OH)
47.85

Retrieve CNV Incidence (%) on choroidal neovascularization; query C[C@H](NC(=O)CNC(=O)[C@H](CCCNC(=N)N)NC(=O)CCCCCCCCCCc1ccccc1N1C(=O)C=CC1=O)C(=O)N[C@@H](CC(=O)O)C(=O)N[C@@H](CCCNC(=N)N)C(=O)N[C@@H](C)C(=O)NCC(=O)NCC(=O)NCC(=O)NCC(=O)N[C@@H](CCCNC(=N)N)C(=O)NCC(=O)N[C@@H](CC(=O)O)C(=O)O [X22] (X72-RGADRAGGGGRGD-OH)
47.85

Under choroidal neovascularization, report CNV Incidence (%) for C[C@H](NC(=O)CNC(=O)[C@H](CCCNC(=N)N)NC(=O)CCCc1cccc(N2C(=O)C=CC2=O)c1)C(=O)N[C@@H](CC(=O)O)C(=O)N[C@@H](CCCNC(=N)N)C(=O)N[C@@H](C)C(=O)NCC(=O)NCC(=O)NCC(=O)NCC(=O)N[C@@H](CCCNC(=N)N)C(=O)NCC(=O)N[C@@H](CC(=O)O)C(=O)O [X27] (X61-RGADRAGGGGRGD-OH)
46.24

Name the recorded CNV Incidence (%) of C[C@H](NC(=O)CNC(=O)[C@H](CCCNC(=N)N)NC(=O)CCCCCCCCCCCCc1cccc(N2C(=O)C=CC2=O)c1)C(=O)N[C@@H](CC(=O)O)C(=O)N[C@@H](CCCNC(=N)N)C(=O)N[C@@H](C)C(=O)NCC(=O)NCC(=O)NCC(=O)NCC(=O)N[C@@H](CCCNC(=N)N)C(=O)NCC(=O)N[C@@H](CC(=O)O)C(=O)O [X36] (X65-RGADRAGGGGRGD-OH) , assay system choroidal neovascularization.
49.46

Tell me CNV Incidence (%) of C[C@H](NC(=O)CNC(=O)[C@H](CCCNC(=N)N)NC(=O)CCCCc1cccc(N2C(=O)C=CC2=O)c1)C(=O)N[C@@H](CC(=O)O)C(=O)N[C@@H](CCCNC(=N)N)C(=O)N[C@@H](C)C(=O)NCC(=O)NCC(=O)NCC(=O)NCC(=O)N[C@@H](CCCNC(=N)N)C(=O)NCC(=O)N[C@@H](CC(=O)O)C(=O)O [X28] (X46-RGADRAGGGGRGD-OH) when tested on choroidal neovascularization.
46.77
